Values from the supplement of paper PMC8728848

# assay.target: Gal3S(b1-3)[Fuc(a1-4)]GlcNAc
# assay.explanation: glycan array binding signal (z-score within array); higher = stronger binding
# condition.description: glycan notation: IUPAC condensed, linker removed
About 410 targets per protein were measured; listed, in parts, are those with the strongest signals and a random draw of the rest.
Binary classification by glycan array binding signal (z-score), with -0.3 as an inclusive lower bound for t; all other cases are f.

Spy 2007 (Streptococcus pyogenes), Q99XV3 (protein) MKKGFFLMAMVVSLVMIAGCDKSANPKQPTQGMSVVTSFYPMYAMTKEVSGDLNDVRMIQSGAGIHSFEPSVNDVAAIYDADLFVYHSHTLEAWARDLDPNLKKSKVDVFEASKPLTLDRVKGLEDMEVTQGIDPATLYDPHTWTDPVLAGEEAVNIAKELGRLDPKHKDSYTKNAKAFKKEAEQLTEEYTQKFKKVRSKTFVTQHTAFSYLAKRFGLKQLGISGISPEQEPSPRQLKEIQDFVKEYNVKTIFAEDNVNPKIAHAIAKSTGAKVKTLSPLEAAPSGNKTYLENLRANLEVLYQQLK; t

Decide: is the reported value of glycan array binding signal (z-score) for SAOUHSC 02783 (Staphylococcus aureus), Q5HD69 (protein) MIHSKKLTLGICLVLLIILIVGYVIMTKTNGRNAQIKDTFNQTLKLYPTKNLDDFYDKEGFRDQEFKKGDKGTWIVNSEMVIEPKGKDMETRGMVLYINRNTRTTKGYYFISEMTDDSNGRPKDDEKRYPVKMEHNKIIPTKPLPNDKLKKEIENFKFFVQYGNFKDINDYKDGDISYNPNVPSYSAKYQLNNDDYNVQQLRKRYDIPTKQAPKLLLKGDGDLKGSSVGSRSLEFTFVENKEENIYFTDSVQYTPSEDTRYESN equal to or greater than -0.3?
f

And then AFL6 (Aspergillus fumigatus), Q4WKJ1 (protein) MSFHLTAEDIRIEDGHRLVARLRNADGDLQDASIDLNTCLGNDNGHFQWDGVDFSHSAQDVHFAIEGGGQVPVLRAQLANQDGEFQDADVNLSERIENINGEFVFH , what is it?
f

And then SAG1 (Toxoplasma gondii), P13664 (protein) MSVSLHHFIISSGFLTSMFPKAVRRAVTAGVFAAPTLMSFLRCGVMASDPPLVANQVVTCPDKKSTAAVILTPTENHFTLKCPKTALTEPPTLAYSPNRQICPAGTTSSCTSKAVTLSSLIPEAEDSWWTGDSASLDTAGIKLTVPIEKFPVTTQTFVVGCIKGDDAQSCMVTVTVQARASSVVNNVARCSYGADSTLGPVKLSAEGPTTMTLVCGKDGVKVPQDNNQYCSGTTLTGCNEKSFKDILPKLTENPWQGNASSDKGATLTIKKEAFPAESKSVIIGCTGGSPEKHHCTVKLEFAGAAGSAKSAAGTASHVSIFAMVIGLIGSIAACVA , what is it?
t

And then Ecp6 (Cladosporium fulvum), B3VBK9 (protein) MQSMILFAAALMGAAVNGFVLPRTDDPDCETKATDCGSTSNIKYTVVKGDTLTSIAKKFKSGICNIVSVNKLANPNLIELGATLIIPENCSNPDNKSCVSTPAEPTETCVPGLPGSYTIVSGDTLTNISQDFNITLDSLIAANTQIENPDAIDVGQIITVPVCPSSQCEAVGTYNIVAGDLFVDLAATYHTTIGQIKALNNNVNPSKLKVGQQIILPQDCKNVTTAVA , what is it?
t
